pIC50 listing for selected compounds.
Target: GBA2 (Homo sapiens)
Test: Determination of IC50 values for inhibition of GBA2 in cell lysate
Format: biochemical
Parameters: host or cells: HEK293T (lentiviral transduction, puromycin selection); used as cellular homogenate
Conditions: cellular homogenate of HEK293T cells overexpressing human GBA2, 250 μM 4-methylumbelliferone-β-D glucopyranoside, pH 5.5, 37° C., GCase inhibitor present; read-out: GBA2 IC50
Excerpt: Assay for Determination of IC50 Values for Inhibition of GBA2 in Cell Lysate Stable GBA2-expressing HEK293T cells were generated as follows. […] Cell populations stably expressing human GBA2 were selected using puromycin for several weeks as determined by activity assays and western blot. […]
pIC50: −log10 of the molar value.

// known answers, use as guide
compound	assayed-system	pIC50
C[C@@H]1[C@@H](O)[C@H](O)[C@@H](O)CN1C[C@H]1CCCN(c2ccccc2F)C1	GBA2 (Homo sapiens)	> 7.00
CCCC(=O)N1CCC(CN2C[C@H](O)[C@@H](O)[C@H](O)[C@H]2C)CC1	GBA2 (Homo sapiens)	4.60 to 6.00
C[C@@H]1[C@@H](O)[C@H](O)[C@@H](O)CN1CC[C@H]1CC[C@@H](C(F)(F)F)CC1	GBA2 (Homo sapiens)	> 7.00

Inquiry: Name the reported pIC50 value associated with the compound C[C@@H]1[C@@H](O)[C@H](O)[C@@H](O)CN1CCCc1cccs1
Reply text: > 7.00

Inquiry: Look up pIC50 for this compound: C[C@@H]1[C@@H](O)[C@H](O)[C@@H](O)CN1C[C@H]1CCN(c2cc(C(F)(F)F)ccn2)C1
Reply text: > 7.00

Inquiry: // query pIC50 value for entry CC(C)CC(=O)N1CCC(CN2C[C@H](O)[C@@H](O)[C@H](O)[C@H]2C)CC1
Reply text: 6.00 to 7.00

Inquiry: Using the record for C[C@@H]1[C@@H](O)[C@H](O)[C@@H](O)CN1CC1CN([C@H]2CCCC[C@H]2C(F)(F)F)C1 , report its pIC50.
Reply text: 4.60 to 6.00

Inquiry: // returns reported pIC50 for input C[C@@H]1[C@@H](O)[C@H](O)[C@@H](O)CN1C[C@H]1CCN(c2cccc3scnc23)C1
Reply text: > 7.00

Inquiry: Quick one: pIC50 of C[C@@H]1[C@@H](O)[C@H](O)[C@@H](O)CN1CCC1CCCCC1 ?
Reply text: 6.00 to 7.00

Inquiry: Requested field: pIC50. Item: C[C@@H]1[C@@H](O)[C@H](O)[C@@H](O)CN1CC1CCN(C(=O)[C@H]2CC[C@@H](C(C)(C)C)CC2)CC1
Reply text: > 7.00

Inquiry: Consider the compound C[C@@H]1[C@@H](O)[C@H](O)[C@@H](O)CN1CCCc1ccccc1F and give its measured pIC50.
Reply text: > 7.00

Inquiry: I have this compound here, C[C@@H]1[C@@H](O)[C@H](O)[C@@H](O)CN1CC1CCN(C(=O)C2CCC2)CC1 , and I need its recorded pIC50.
Reply text: 6.00 to 7.00

----------
Molecular target: GBA2 (Homo sapiens, UniProt Q9HCG7)
Sequence (Q9HCG7 whole entry): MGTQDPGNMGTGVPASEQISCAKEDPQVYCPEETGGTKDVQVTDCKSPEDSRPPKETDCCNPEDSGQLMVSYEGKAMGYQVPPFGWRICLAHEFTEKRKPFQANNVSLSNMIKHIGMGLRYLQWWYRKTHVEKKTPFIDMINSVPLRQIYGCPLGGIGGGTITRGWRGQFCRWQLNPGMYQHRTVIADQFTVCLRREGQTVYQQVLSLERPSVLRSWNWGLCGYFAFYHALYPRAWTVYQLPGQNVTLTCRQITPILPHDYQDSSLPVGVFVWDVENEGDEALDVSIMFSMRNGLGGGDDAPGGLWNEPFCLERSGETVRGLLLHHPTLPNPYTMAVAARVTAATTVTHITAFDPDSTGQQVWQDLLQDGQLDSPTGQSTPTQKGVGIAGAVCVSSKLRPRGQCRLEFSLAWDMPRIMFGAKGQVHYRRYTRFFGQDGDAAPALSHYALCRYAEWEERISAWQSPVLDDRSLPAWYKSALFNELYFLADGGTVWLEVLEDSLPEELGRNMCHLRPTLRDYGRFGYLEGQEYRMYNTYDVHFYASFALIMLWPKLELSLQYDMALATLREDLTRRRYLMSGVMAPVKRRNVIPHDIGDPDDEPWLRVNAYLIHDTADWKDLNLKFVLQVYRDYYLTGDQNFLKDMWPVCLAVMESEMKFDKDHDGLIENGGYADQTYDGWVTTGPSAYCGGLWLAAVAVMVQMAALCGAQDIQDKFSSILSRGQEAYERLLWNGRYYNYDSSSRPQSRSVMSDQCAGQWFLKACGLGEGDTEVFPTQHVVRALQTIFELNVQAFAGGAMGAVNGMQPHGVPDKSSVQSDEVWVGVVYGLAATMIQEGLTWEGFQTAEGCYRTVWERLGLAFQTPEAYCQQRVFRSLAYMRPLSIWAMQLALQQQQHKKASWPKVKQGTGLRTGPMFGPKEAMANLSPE
Assay: Determination of IC50 values for inhibition of GBA2 in cell lysate
Assay type: biochemical
Parameters: host or cells: HEK293T (lentiviral transduction, puromycin selection); used as cellular homogenate
Settings: cellular homogenate of HEK293T cells overexpressing human GBA2, 250 μM 4-methylumbelliferone-β-D glucopyranoside, pH 5.5, 37° C., GCase inhibitor present; read-out: GBA2 IC50
value-kind: IC50

Guide cases for IC50, answers given:
compound	IC50
C[C@@H]1[C@@H](O)[C@H](O)[C@@H](O)CN1CC1CCN(C(=O)[C@H]2CC[C@H](C(C)(C)C)CC2)CC1	< 100 nM
C[C@@H]1[C@@H](O)[C@H](O)[C@@H](O)CN1CCC12CC3CC(CC(C3)C1)C2	< 100 nM
C[C@@H]1[C@@H](O)[C@H](O)[C@@H](O)CN1C[C@H](C)c1ccccc1	100 to 1000 nM
C[C@@H]1[C@@H](O)[C@H](O)[C@@H](O)CN1CCc1c(F)cc(N2CCCCC2)cc1F	< 100 nM
C[C@@H]1[C@@H](O)[C@H](O)[C@@H](O)CN1CC1CCN(C(=O)c2ccccc2)CC1	100 to 1000 nM
C[C@@H]1[C@@H](O)[C@H](O)[C@@H](O)CN1CC1CCN(C(=S)NC2CCCCC2)CC1	100 to 1000 nM

Inquiry: Fill blank: measured IC50 of the compound C[C@@H]1[C@@H](O)[C@H](O)[C@@H](O)CN1C[C@H]1CCN(c2cncc(C(F)(F)F)c2)C1 is ____.
Reply text: < 100 nM

Inquiry: What IC50 value was documented for this compound, C[C@@H]1[C@@H](O)[C@H](O)[C@@H](O)CN1C[C@H]1CCCN(c2cnccc2C(F)(F)F)C1 ?
Reply text: < 100 nM

Inquiry: What measured IC50 goes with C[C@@H]1[C@@H](O)[C@H](O)[C@@H](O)CN1CCc1c(F)cc(-c2ccccc2)cc1F ?
Reply text: < 100 nM

Inquiry: // lookup IC50 for C[C@@H]1[C@@H](O)[C@H](O)[C@@H](O)CN1C[C@H]1CCN(c2ccccc2C(F)(F)F)C1
Reply text: < 100 nM

Inquiry: Suppose we examine the compound C[C@@H]1[C@@H](O)[C@H](O)[C@@H](O)CN1C[C@H]1CCN(c2cccnc2C(F)(F)F)C1 ; what IC50 value has been reported?
Reply text: < 100 nM

Inquiry: I'd like to know its IC50. The compound in question is C[C@@H]1[C@@H](O)[C@H](O)[C@@H](O)CN1C[C@H]1CCN(c2cccnc2)C1
Reply text: 1000 to 25000 nM

----------
Biological target: GBA2 (Homo sapiens)
Experiment: Determination of IC50 values for inhibition of GBA2 in cell lysate
Assay type: biochemical
Design: host or cells: HEK293T (lentiviral transduction, puromycin selection); used as cellular homogenate
pIC50: −log10 of the molar value.
value-kind: pIC50

Record excerpt, results attached:
compound	assayed-system	pIC50
C[C@@H]1[C@@H](O)[C@H](O)[C@@H](O)CN1CCc1ccccc1 [Example 35]	GBA2 (Homo sapiens)	6.00 to 7.00
O[C@H]1[C@H](O)[C@@H](O)CN(CCc2ccc3c(c2)OCCO3)[C@@H]1CF [Example 153]	GBA2 (Homo sapiens)	> 7.00

Continue with the next compound.
Inquiry: Item C[C@@H]1[C@@H](O)[C@H](O)[C@@H](O)CN1CCc1cc(Cl)ccc1F [Example 47] with GBA2 (Homo sapiens) - pIC50?
Reply text: > 7.00

----------
Biological target: GBA2 (Homo sapiens, UniProt Q9HCG7)
Experiment: Determination of IC50 values for inhibition of GBA2 in cell lysate
Assay type: biochemical
Design: host or cells: HEK293T (lentiviral transduction, puromycin selection); used as cellular homogenate
Conditions: cellular homogenate of HEK293T cells overexpressing human GBA2, 250 μM 4-methylumbelliferone-β-D glucopyranoside, pH 5.5, 37° C., GCase inhibitor present; read-out: GBA2 IC50
value-kind: IC50

Completed entries (count: 5):
molecule	IC50
C[C@@H]1[C@@H](O)[C@H](O)[C@@H](O)CN1C[C@H]1CCN(c2ccsc2)C1 [Example 128]	< 100 nM
C[C@@H]1[C@@H](O)[C@H](O)[C@@H](O)CN1C[C@H]1CC[C@H](C(F)(F)F)CC1 [Example 12]	< 100 nM
C[C@@H]1[C@@H](O)[C@H](O)[C@@H](O)CN1C[C@H]1CCN(c2cnccc2C(F)(F)F)C1 [Example 124]	< 100 nM
C[C@@H]1[C@@H](O)[C@H](O)[C@@H](O)CN1C[C@H]1CC[C@H](C(C)(C)F)CC1 [Example 14]	< 100 nM
C[C@@H]1[C@@H](O)[C@H](O)[C@@H](O)CN1C[C@@H]1CCCN(c2ncccc2C(F)(F)F)C1 [Example 141]	< 100 nM

Inquiry: Query (molecule): C[C@@H]1[C@@H](O)[C@H](O)[C@@H](O)CN1CC1CCN(c2cccnc2)CC1 [Example 90] ; field requested: IC50
Reply text: 1000 to 25000 nM

Inquiry: What measured IC50 goes with C[C@@H]1[C@@H](O)[C@H](O)[C@@H](O)CN1C[C@H]1CCCN(c2ncccc2C(F)(F)F)C1 [Example 138] ?
Reply text: < 100 nM

Inquiry: What value of measured IC50 is listed for C[C@@H]1[C@@H](O)[C@H](O)[C@@H](O)CN1C[C@H]1CCN(c2cccc(C(F)(F)F)n2)C1 [Example 119] ?
Reply text: < 100 nM

Inquiry: Need IC50, item C[C@H](CN1C[C@H](O)[C@@H](O)[C@H](O)[C@H]1C)c1ccccc1 [Example 67]
Reply text: 100 to 1000 nM

Inquiry: Item CC(C)(C)C1CCC(CN2C[C@H](O)[C@@H](O)[C@H](O)[C@H]2CF)CC1 (some centres unmarked) [Example 146] has what recorded IC50?
Reply text: < 100 nM

Inquiry: Given the entry C[C@@H]1[C@@H](O)[C@H](O)[C@@H](O)CN1C[C@H]1CC[C@@H](C(C)(C)C)CC1 [Example 9] , report its measured IC50.
Reply text: < 100 nM
